Numbers sourced from patent US20100029612A1.

MEASURED ON: UII receptor (Homo sapiens, UniProt Q9UKP6)
Construct: expressed in transfected cells; host or cells: NIH3T3 cells, receptor plasmid in PSI Mammalian Expression Vector (PROMEGA)
Sequence (Q9UKP6 whole entry): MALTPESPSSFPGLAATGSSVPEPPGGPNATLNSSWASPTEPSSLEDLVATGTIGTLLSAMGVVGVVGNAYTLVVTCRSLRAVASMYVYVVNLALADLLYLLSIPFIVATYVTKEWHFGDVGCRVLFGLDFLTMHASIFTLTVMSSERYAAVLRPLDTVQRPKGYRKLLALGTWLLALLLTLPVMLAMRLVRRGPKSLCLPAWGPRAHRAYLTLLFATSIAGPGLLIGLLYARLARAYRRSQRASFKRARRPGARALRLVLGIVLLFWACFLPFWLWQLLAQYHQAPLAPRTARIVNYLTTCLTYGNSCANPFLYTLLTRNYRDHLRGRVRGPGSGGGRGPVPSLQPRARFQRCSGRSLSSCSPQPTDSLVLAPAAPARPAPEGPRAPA
EXPERIMENTAL PROTOCOL: R-SAT functional mammalian cell-based agonist assay, UII receptor
CONDITION INFO: agonist efficacy, transfected NIH3T3 cells
Param label: returns rule met when UII Eff. < 40, returns rule not met otherwise, including exact equality.

COMPOUND | LABEL
CN(C)CCC1(c2ccc(Cl)cc2)Cc2ccccc2C(=O)O1 (centres unmarked) [AC-7954, reference compound] | rule not met
CCN(CC)CC[C@@H]1C(c2ccccc2)=Nc2ccccc2S[C@H]1c1ccc(Cl)cc1 (relative stereo) [V] | rule not met
CCN(CC)CCC1C(c2ccccc2)=NN(C)C1c1ccc(Cl)cc1 (mixture of isomers) [III] | rule met
CCN(CC)CCC1=C(c2ccccc2)NC(=O)N(C)C1c1ccc(Cl)cc1 (centres unmarked) [I] | rule not met
CCN(CC)CCC(=Cc1ccc(Cl)cc1)C(=O)c1ccccc1 (mixture of isomers) [Starting material] | rule met

----------
MEASURED ON: UII receptor (Homo sapiens)
Construct: expressed in transfected cells; host or cells: NIH3T3 cells, receptor plasmid in PSI Mammalian Expression Vector (PROMEGA)
EXPERIMENTAL PROTOCOL: R-SAT functional mammalian cell-based agonist assay, UII receptor
CONDITION INFO: UII and SST5 receptors
Description: The compounds I to VI were tested as agonist at the UII and SST5 receptors in the functional mammalian cell-based assay R-SAT, described in U.S. Pat. Nos. 5,707,798, 5,912,132, and 5,955,281. R-SAT assays were performed using NIH3T3 cells grown in tissue culture treated rollerbottles to 40-50% confluence. […] Media was then removed from the plates and marker gene activity was measured by the addition of the beta-galactosidase substrate ONPG (in PBS with 5% NP-40). […]
MEASUREMENT TYPE: selectivity UII versus SST5 receptor (in words)

COMPOUND | MEASURED ON | REPORTED
CCN(CC)CCC1=C(c2ccccc2)NC(=O)N(C)C1c1ccc(Cl)cc1 (stereo not shown) | UII receptor (Homo sapiens) | selective UII agonists
CCN(CC)CCC1C(c2ccccc2)=NN(C)C1c1ccc(Cl)cc1 (mixture of isomers) | UII receptor (Homo sapiens) | selective UII agonists
